# STUDY_SYSTEM: BCAT2 (Homo sapiens, UniProt O15382)
# Sequence (O15382 28-392): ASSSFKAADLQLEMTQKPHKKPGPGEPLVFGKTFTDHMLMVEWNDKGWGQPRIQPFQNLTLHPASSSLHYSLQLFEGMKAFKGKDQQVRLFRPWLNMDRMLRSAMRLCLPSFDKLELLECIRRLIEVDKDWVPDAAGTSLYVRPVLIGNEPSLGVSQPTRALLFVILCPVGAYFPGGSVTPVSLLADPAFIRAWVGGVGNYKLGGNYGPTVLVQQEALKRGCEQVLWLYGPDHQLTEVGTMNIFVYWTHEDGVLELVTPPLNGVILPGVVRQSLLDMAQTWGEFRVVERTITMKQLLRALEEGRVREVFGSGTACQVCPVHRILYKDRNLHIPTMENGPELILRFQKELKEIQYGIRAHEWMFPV
# ASSAY_COMMENT: BCAT2 in vitro enzyme inhibition assay (resazurin/diaphorase-coupled fluorescence)
# Assay type: biochemical
# MEASUREMENT_SETUP: average where tested multiple times
# key: entry, value: IC50

Some entries whose results are on file:
O=C(N[C@H]1CCC[C@@H](n2c(-c3ccccc3F)nc3cnc(-c4c(F)cccc4F)cc32)C1)c1ncc(Cl)s1 [Example 207]: 100 to 500 nM
N#Cc1ccc(F)c(-c2nc3cnc(-c4nc[nH]n4)cc3n2[C@@H]2CCC[C@H](NC(=O)c3ccc(Cl)s3)C2)c1 [Example 345]: 100 to 500 nM
O=C(N[C@H]1CCC[C@@H](n2c(-c3ccccc3F)nc3cnc(-n4ccccc4=O)cc32)C1)c1ncc(Cl)s1 [Example 357]: 500 to 1000 nM
CO[C@@H]1C[C@H](NC(=O)c2ncc(Cl)s2)C[C@H](n2c(CC(C)C)nc3cnc(-n4nccn4)cc32)C1 (single isomer, unassigned) [Example 439]: ≤ 100 nM
O=C(N[C@H]1CCC[C@@H](n2c(-n3cccn3)nc3cnc(-n4nccn4)cc32)C1)c1ncc(C(F)F)s1 [Example 56]: ≤ 100 nM

Req: Give IC50 for this entry on BCAT2 (Homo sapiens, UniProt O15382): O=C(N[C@H]1CCC[C@@H](n2c(-c3ccccc3F)nc3cnc(-n4nccn4)cc32)C1)c1ncc(Cl)s1 [Example 71]
Resp: ≤ 100 nM

Req: Report the value of IC50 obtained on BCAT2 (Homo sapiens, UniProt O15382) for CC(=O)N[C@@H](c1nc2cnc(-c3nc[nH]n3)cc2n1[C@@H]1CCC[C@H](NC(=O)c2ncc(Cl)s2)C1)C(C)C [Example 369] .
Resp: 500 to 1000 nM

Req: Provide BCAT2 (Homo sapiens, UniProt O15382) IC50 reading for CC(C)C(O)c1nc2cnc(-c3nc[nH]n3)cc2n1[C@@H]1CCC[C@H](NC(=O)c2ncc(Cl)s2)C1 (single isomer, unassigned) [Example 183] .
Resp: ≤ 100 nM

Req: Provide IC50, tested on BCAT2 (Homo sapiens, UniProt O15382), for O=C(N[C@@H]1C[C@@H](O)C[C@H](n2c(-c3ccccc3F)nc3cnc(-n4nccn4)cc32)C1)c1ncc(Cl)s1 (single isomer, unassigned) [Example 111] .
Resp: 100 to 500 nM

Req: Quote BCAT2 (Homo sapiens, UniProt O15382) IC50 for entry C=Cc1csc(C(=O)N[C@H]2CCC[C@@H](n3c(-c4ccccc4F)nc4cnc(-c5nc[nH]n5)cc43)C2)n1 [Example 173] .
Resp: ≤ 100 nM

Req: Specify the recorded IC50 for O=C(N[C@H]1CCC[C@@H](n2c(-c3ccccc3F)nc3cnc(-c4nncn4C(F)F)cc32)C1)c1ncc(Cl)s1 [Example 377] , system: BCAT2 (Homo sapiens, UniProt O15382).
Resp: 500 to 1000 nM

Req: Jot down IC50 (BCAT2 (Homo sapiens, UniProt O15382)) of CC(=O)N1CC(NC(=O)c2ccc(Br)s2)CC(n2c(-c3ccccc3F)nc3cnc(-c4ncco4)cc32)C1 (stereo not shown) [Example 118] .
Resp: ≤ 100 nM

Req: Report IC50 under test system BCAT2 (Homo sapiens, UniProt O15382) for O=C(N[C@H]1CCC[C@@H](n2c(C3COCCO3)nc3cnc(-c4nc[nH]n4)cc32)C1)c1ncc(Cl)s1 (single isomer, unassigned) [Example 176] .
Resp: 100 to 500 nM
